target: MCR-4 (Homo sapiens, UniProt P32245); construct: expressed in transfected cells; host or cells: HEK 293; assay: Melanocortin receptor binding assay, competition with 125I-HP 467, HEK 293 cells expressing hMCR-4; details: TRG 2414 library; inhibition of binding of 125I-HP 467, HEK 293 cells expressing MCR-4; read-out: MC-4 IC50
Sequence (P32245 whole entry): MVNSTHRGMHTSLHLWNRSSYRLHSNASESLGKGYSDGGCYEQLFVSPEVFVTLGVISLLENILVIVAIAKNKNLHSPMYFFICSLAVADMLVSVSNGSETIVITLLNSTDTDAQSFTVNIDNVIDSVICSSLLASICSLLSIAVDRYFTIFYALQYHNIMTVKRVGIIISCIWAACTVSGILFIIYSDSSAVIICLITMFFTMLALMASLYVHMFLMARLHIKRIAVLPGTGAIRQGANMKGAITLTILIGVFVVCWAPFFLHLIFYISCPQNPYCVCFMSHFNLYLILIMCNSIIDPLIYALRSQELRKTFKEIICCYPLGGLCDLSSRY
RECORDED METRIC: IC50 (µM)
State the answer as a number, implicitly in µM.

Enquiry: Write down IC50 measured for item CCCOc1ccc(C2C(CNCc3ccccc3)c3ccccc3CN2CCCCC(CN)NCC(C)c2ccc(CC(C)C)cc2)cc1 (mixture of isomers)
Return: 16

Enquiry: Write down IC50 measured for item COc1ccc(CNCC2c3ccccc3CN(CCCCC(CN)NCC(C)c3ccc(CC(C)C)cc3)C2c2ccccc2Br)cc1 (stereo not shown)
Return: 22.7

Enquiry: Write down IC50 measured for item CC(C)Cc1ccc(C(C)CNC(CN)CCCCN2Cc3ccccc3C(CNC3CCCCC3)C2c2ccccc2Br)cc1 (stereo not shown)
Return: 9.9

Enquiry: Write down IC50 measured for item CCCOc1ccc(C2C(CNC3CCCCCC3)c3ccccc3CN2CCCCC(CN)NCCc2ccccc2)cc1 (stereo not shown)
Return: 5.09

Enquiry: Write down IC50 measured for item NCC(CCCCN1Cc2ccccc2C(CNC2CCCCCC2)C1c1ccccc1Br)NCCc1ccccc1 (stereo not shown)
Return: 5.28

Enquiry: Write down IC50 measured for item COc1ccccc1CCNCC1c2ccccc2CN(CCCCC(CN)NCCc2ccccc2)C1c1ccccc1Br (stereo not shown)
Return: 4.43

Enquiry: Write down IC50 measured for item CC(C)Cc1ccc(C(C)CNC(CN)CCCCN2Cc3ccccc3C(CNC3CCCCCC3)C2c2ccccc2Br)cc1 (stereo not shown)
Return: 18

Enquiry: Write down IC50 measured for item NCC(CCCCN1Cc2ccccc2C(CNCCc2cccc(Cl)c2)C1c1ccccc1Br)NCc1ccccc1 (stereo not shown)
Return: 6.43

Enquiry: Write down IC50 measured for item COc1cccc(CNCC2c3ccccc3CN(CCCCC(CN)NCc3ccccc3)C2c2ccccc2Br)c1 (stereo not shown)
Return: 9.59

Enquiry: Write down IC50 measured for item COc1ccc(CCNCC2c3ccccc3CN(CCCCC(CN)NCCc3ccccc3)C2c2ccccc2Br)cc1 (stereo not shown)
Return: 3.42

Enquiry: Write down IC50 measured for item NCC(N)CCCCN1Cc2ccccc2C(CNC2CCCCCC2)C1c1ccccc1Br (stereo not shown)
Return: 3.27

Enquiry: Write down IC50 measured for item CCCOc1ccc(C2C(CNC3CCCCC3)c3ccccc3CN2CCCCC(CN)NCCc2ccccc2)cc1 (stereo not shown)
Return: 3.68

Enquiry: Write down IC50 measured for item COc1ccc(CNCC2c3ccccc3CN(CCCCC(CN)NCCc3ccccc3)C2c2ccccc2Br)cc1 (stereo not shown)
Return: 4.78

Enquiry: Write down IC50 measured for item CCCOc1ccc(C2C(CNCc3ccccc3)c3ccccc3CN2CCCCC(CN)NCCc2ccccc2)cc1 (stereo not shown)
Return: 5.42

Enquiry: Write down IC50 measured for item CCCOc1ccc(C2C(CNCCc3ccc(OC)cc3)c3ccccc3CN2CCCCC(CN)NCCc2ccccc2)cc1 (stereo not shown)
Return: 8.09

Enquiry: Write down IC50 measured for item CCCOc1ccc(C2C(CNC3CCCCC3)c3ccccc3CN2CCCCC(N)CN)cc1 (stereo not shown)
Return: 12.6

###

target: MCR-4 (Homo sapiens); construct: expressed in transfected cells; host or cells: HEK 293; assay: Melanocortin receptor binding assay, competition with 125I-HP 467, HEK 293 cells expressing hMCR-4; conditions: inhibition of binding of 125I-HP 467, HEK 293 cells expressing MCR-4; read-out: MC-4 IC50
RECORDED METRIC: IC50 (µM)
State the answer as a number, implicitly in µM.

Enquiry: Write down IC50 measured for item CCNC(CN)CCCCN1Cc2ccccc2C(CN)C1c1ccc(O)cc1 (stereo not shown)
Return: 63.9

Enquiry: Write down IC50 measured for item CCCCOc1ccc(C2C(CN)c3ccccc3CN2CCCC(CN)NCCC2CCCCC2)cc1 (stereo not shown)
Return: 3.89

Enquiry: Write down IC50 measured for item COc1ccc(CNC(CN)CCCCN2Cc3ccccc3C(CNCCc3cccc(OC)c3)C2c2cc(C(F)(F)F)cc(C(F)(F)F)c2)cc1 (stereo not shown)
Return: 1.04

Enquiry: Write down IC50 measured for item CCCOc1ccc(C2C(CO)c3ccccc3CN2CCCC(CN)NCCC2CCCCC2)cc1 (mixture of isomers)
Return: 2.55
